Target: Hexokinase-4 (Homo sapiens)
Assay: Activation of human recombinant glucokinase using 5 mM glucose as substrate in presence of NAD+ and 4% HSA by glucose 6-phosphate dehydrogenase coupled assay
EC50 vs 200 nM: less than gives condition met; not less than gives condition not met.

Below, 5 molecules whose answers are already recorded.
CNC(=O)Nc1cc(Oc2cncc(OC)c2)c([C@@H]2CCOC2)cn1; condition met
CCOCCc1cnc(NC(=O)NC)cc1Oc1cncc(C)c1; condition met
CNC(=O)Nc1cc(Oc2cncc(C)c2)c([C@]2(O)C[C@H](O)C2)cn1; condition not met
CNC(=O)Nc1cc(Oc2cncc(OC)c2)c(C2=CCCOC2)cn1; condition met
CNC(=O)Nc1cc(Oc2cncc(C)c2)c(C(C)CO)cn1 (stereo unspecified); condition not met

# next molecule below
stdin: I wonder whether CNC(=O)Nc1cc(Oc2cncc(OC)c2)c(C2CCOCC2)cn1 has EC50 below 200 nM. Can you tell?
stdout: condition met

====

Target: UniProt P35557
Experiment: Activation of human recombinant glucokinase assessed as Vmax ratio using 0.16 to 80 mM of glucose as substrate in presence of NAD+ by glucose 6-phosphate dehydrogenase coupled assay relative to control
The following molecules are listed with their measured Ratio values.
Reply briefly: the number, and no unit.

Here is how some molecules turned out for Ratio.
CNC(=O)Nc1cc(Oc2cncc(C)c2)c(CCCCO)cn1; 0.87
CNC(=O)Nc1cc(Oc2cncc(OC)c2)c([C@@H]2COCC[C@@H]2O)cn1 (relative stereo); 0.83
CNC(=O)Nc1cc(Oc2cncc(C)c2)c([C@H]2CCC[C@H](O)C2)cn1; 1
CNC(=O)Nc1cc(Oc2cncc(C)c2)c(CCO)cn1; 0.9
CNC(=O)Nc1cc(Oc2cncc(OC)c2)c([C@H]2CCCOC2)cn1; 1.1
CNC(=O)Nc1cc(Oc2cncc(OC)c2)c([C@H]2COCCC2(F)F)cn1; 0.89

stdin: Annotate the molecule CNC(=O)Nc1cc(Oc2cncc(C)c2)c([C@H]2C[C@H](O)C2)cn1 with its measured Ratio.
stdout: 0.92

stdin: State its Ratio: CNC(=O)Nc1cc(Oc2cncc(OC)c2)c(C2CCOCC2)cn1
stdout: 1

stdin: Query Ratio for CNC(=O)Nc1cc(Oc2cncc(C)c2)c([C@H]2C[C@@H](C(C)(C)O)C2)cn1
stdout: 0.54

====

Experiment: Intrinsic clearance in human liver microsomes
Format: ADME, Microsome
Settings: read-out: CLH
READOUT TYPE: microsomal CLint

stdin: Recall and state the measured microsomal CLint for CNC(=O)Nc1cc(Oc2cncc(C)c2)c([C@H]2C[C@@H](O)C2)cn1 .
stdout: < 14 µL/min/mg

====

Target: Hexokinase-4 (Homo sapiens, UniProt P35557)
Sequence (P35557 whole entry): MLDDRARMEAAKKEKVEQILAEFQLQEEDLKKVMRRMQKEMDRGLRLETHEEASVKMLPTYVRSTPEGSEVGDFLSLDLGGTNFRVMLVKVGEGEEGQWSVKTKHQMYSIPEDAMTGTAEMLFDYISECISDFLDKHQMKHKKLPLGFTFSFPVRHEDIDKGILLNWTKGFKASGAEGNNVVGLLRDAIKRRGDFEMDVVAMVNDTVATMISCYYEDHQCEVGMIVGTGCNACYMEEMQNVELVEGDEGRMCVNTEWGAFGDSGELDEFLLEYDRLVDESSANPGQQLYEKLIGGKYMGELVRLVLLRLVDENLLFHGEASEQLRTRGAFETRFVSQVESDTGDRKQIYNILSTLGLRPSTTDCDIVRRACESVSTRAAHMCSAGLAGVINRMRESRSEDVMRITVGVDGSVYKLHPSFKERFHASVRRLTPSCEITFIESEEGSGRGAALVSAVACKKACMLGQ
Assay: Activation of human recombinant glucokinase using 5 mM glucose as substrate in presence of NAD+ by glucose 6-phosphate dehydrogenase coupled assay
Below: a set of entries, each annotated with reported EC50.
Field format: number, assumed nM, no unit text.

CNC(=O)Nc1cc(Oc2cncc(C)c2)c(C(C)CO)cn1 (stereo unspecified); 670
CNC(=O)Nc1cc(Oc2cncc(OC)c2)c(C2CCOCC2)cn1; 110

stdin: Identify measured EC50 associated with CCOCCc1cnc(NC(=O)NC)cc1Oc1cncc(C)c1
stdout: 98

stdin: Given the compound CNC(=O)Nc1cc(Oc2cncc(C)c2)c(CCCCO)cn1 , write its reported EC50.
stdout: 37

stdin: // fetch EC50 given entry CNC(=O)Nc1cc(Oc2cncc(OC)c2)c([C@H]2COCC[C@@H]2F)cn1
stdout: 170

stdin: Answer with reported EC50 of CNC(=O)Nc1cc(Oc2cncc(C)c2)c([C@H]2CCC[C@H](O)C2)cn1
stdout: 72

stdin: Using the record for CNC(=O)Nc1cc(Oc2cncc(OC)c2)c([C@@H]2CCCN(C)C2)cn1 , state its measured EC50.
stdout: 2300

stdin: Give a short answer stating reported EC50 for CNC(=O)Nc1cc(Oc2cncc(OC)c2)c([C@H]2CCCOC2)cn1 .
stdout: 160

stdin: Look up EC50 of CNC(=O)Nc1cc(Oc2cncc(OC)c2)c([C@@H]2CCOC2)cn1 and report it.
stdout: 110

stdin: Report measured EC50; entry is CNC(=O)Nc1cc(Oc2cncc(C)c2)c([C@]2(O)C[C@H](O)C2)cn1
stdout: 6700

stdin: Quote EC50 reported for CNC(=O)Nc1cc(Oc2cncc(OC)c2)c([C@@H]2CCCOC2)cn1 please.
stdout: 720
